A collection of molecules and their measured Bliss independence sum
- System: Candida glabrata ZIM 2344 (RPMI)
- experiment-notes: Bliss independence sum of statistically significant ΔE (measured minus predicted growth inhibition) over checkerboard surface (fraction (sum of ΔE; 1 = 100%)); higher = more synergy
- assay-setup: temperature: 37 °C
Number only, no unit.

COc1c(C)c2c(c(O)c1C/C=C(\C)CCC(=O)O)C(=O)OC2 [mycophenolic acid] + CCC(C)n1ncn(-c2ccc(N3CCN(c4ccc(OCC5COC(Cn6cncn6)(c6ccc(Cl)cc6Cl)O5)cc4)CC3)cc2)c1=O [itraconazole] ... 10
CN(Cc1cnc2nc(N)nc(N)c2n1)c1ccc(C(=O)N[C@@H](CCC(=O)O)C(=O)O)cc1 [methotrexate] + OC(Cn1cncn1)(Cn1cncn1)c1ccc(F)cc1F [fluconazole] ... 1.94

Let's switch to this molecule now.
Entry under test: CC1(C)S[C@@H]2[C@H](NC(=O)[C@H](N)c3ccc(O)cc3)C(=O)N2[C@H]1C(=O)O [amoxicillin] + CCC(C)n1ncn(-c2ccc(N3CCN(c4ccc(OCC5COC(Cn6cncn6)(c6ccc(Cl)cc6Cl)O5)cc4)CC3)cc2)c1=O [itraconazole] . Its Bliss independence sum was 3
